Could you please report measured inhibition for the items listed next?
Assay: H1N1 influenza NS1A inhibitors, functional cell based assay (AID 504329)
Conditions: percent inhibition, at 12.5 µM, stronger effect = higher value
Hit rate of the full screen: of about 340,000 compounds, about 1,000 (0.29%) were called active. Only a sample is shown. Measured potencies and affinities stand elsewhere.
The reply should contain only the number, in %.

Report inhibition for CCOC(=O)C1CCCN(C(=O)C2CCN(Cc3nc(-c4ccc(Cl)cc4)oc3C)CC2)C1 (stereo unspecified) please. -0.69

Report inhibition for `Cc1ccc(-c2cn(C[C@H]3CC[C@@H]([C@@H]4CC[C@H](Cn5cc(-c6ccc(C)cc6)nn5)O4)O3)nn2)cc1` please. 1.46

Report inhibition for `O=C(CN1CCOc2ccccc21)NCc1ccco1` please. -0.84

Report inhibition for `O=C(CNC(=O)c1ccccc1F)OCCCOC(=O)CNC(=O)c1ccccc1F` please. -5.51

Report inhibition for `Cc1onc(COc2ccccc2O)c1Br` please. -2.44

Report inhibition for `c1cncc(-c2cn(C[C@H]3CC[C@H](Cn4cc(-c5cccnc5)nn4)O3)nn2)c1` please. -19.1

Report inhibition for `CNC(=O)c1[nH]cnc1C(=O)Nc1cccc(C)c1` please. -8.44

Report inhibition for `COc1ccc(-n2c(=O)c3ccccc3n(CC(=O)NC3CCCCC3)c2=O)cc1OC` please. 10.9

Report inhibition for COc1ccccc1C(CNC(=O)c1ccc(S(=O)(=O)N2CCCCC2)cc1)N(C)C (stereo unspecified) please. -6.72

Report inhibition for `c1cncc(-c2cn(C[C@H]3CC[C@@H]([C@@H]4CC[C@H](Cn5cc(-c6cccnc6)nn5)O4)O3)nn2)c1` please. -3.65

Report inhibition for `CC(C)CCNC(=O)NC(=O)COc1ncnc2sccc12` please. -13.5

Report inhibition for `O=C(Oc1cccc(F)c1)c1ccc2c(=O)n3c(nc2c1)CCC3` please. 3.05

Report inhibition for `COc1ccc(C(=O)Nc2cccc(C)n2)cc1S(=O)(=O)N1CCCc2ccccc21` please. 8.43

Report inhibition for `COC(=O)c1cc(NC(=S)Nc2cc(Cl)cc(Cl)c2)cc(C(=O)OC)c1` please. -5.67

Report inhibition for `COc1ccc(C(=O)COC(=O)Cn2nnc3ccccc32)cc1Br` please. 18.7

Report inhibition for `O=C(C1CCN(Cc2nc(Cc3cccc(F)c3)no2)CC1)N1CCOCC1` please. 7.26

Report inhibition for Cc1cc(OC(C)C(=O)NCCN2CCOCC2)c2c(C)c(C)c(=O)oc2c1 (stereo unspecified) please. 2.99

Report inhibition for COc1ccc(C(=O)COC(=O)C2CC3CCCC(C2)C3=O)cc1Br (stereo unspecified) please. -3.01

Report inhibition for `O=C(Cn1cnc(S(=O)(=O)N2CCCCC2)c1)Nc1ccc(OC(F)(F)F)cc1` please. 2.65

Report inhibition for `Cn1c(SCC(=O)Nc2nccs2)nnc1-c1ccncc1` please. 2.71

Report inhibition for `c1ccc(-c2cn(C[C@H]3CC[C@@H]([C@@H]4CC[C@H](Cn5cc(-c6ccccc6)nn5)O4)O3)nn2)cc1` please. 1.07

FYI, the data here is from PubChem BioAssay AID504329.
